# assayed.target: Cytochrome P450 1A2 (Homo sapiens) (UniProt P05177)
# Sequence (P05177 whole entry, looked up): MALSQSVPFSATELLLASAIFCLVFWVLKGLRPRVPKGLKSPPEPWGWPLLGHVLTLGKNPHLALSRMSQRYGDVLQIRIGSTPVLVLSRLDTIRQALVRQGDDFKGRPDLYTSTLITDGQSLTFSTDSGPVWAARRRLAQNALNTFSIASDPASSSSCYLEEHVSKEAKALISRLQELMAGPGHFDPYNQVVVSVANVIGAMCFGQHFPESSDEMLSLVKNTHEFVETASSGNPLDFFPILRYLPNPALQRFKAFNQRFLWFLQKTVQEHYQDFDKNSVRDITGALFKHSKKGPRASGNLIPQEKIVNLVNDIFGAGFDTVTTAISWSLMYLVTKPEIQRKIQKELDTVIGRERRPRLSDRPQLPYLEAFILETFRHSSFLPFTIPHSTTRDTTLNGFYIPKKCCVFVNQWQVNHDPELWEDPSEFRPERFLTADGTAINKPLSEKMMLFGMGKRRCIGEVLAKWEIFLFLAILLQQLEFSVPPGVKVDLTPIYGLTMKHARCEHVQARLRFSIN
# measurement.description: p450-cyp1a2 (AID 410)
# protocol.conditions: recombinant CYP1A2, luciferin-ME demethylation, luminescence; series mostly up to 57 µM
Records with an inconclusive call do not appear. Active and inactive are the calls of the source. The call rests on the fitted dose curve.
Response enum: Yes for active, No for inactive

Example entries and their recorded answers appear below.
C[N+](C)(C)CCOC(N)=O: No
O=C(O)CN(CCOCCOCCN(CC(=O)O)CC(=O)O)CC(=O)O: No
CN(C)C(=O)Oc1ccc[n+](C)c1: No
CCO/C([O-])=N/c1c[n+](N2CCOCC2)no1: No
O=C(O)CP(=O)(O)O: No
CCN(CC)CCOCCOC(=O)C1(c2ccccc2)CCCC1: Yes

Could you now consider this next compound?
Could you kindly confirm the outcome this assay logged for CCCCCCCC/C=C\CCCCCCCC(=O)NCc1ccc(O)c(OC)c1 ? Yes

Reference source for all entries: PubChem BioAssay (NCATS)
